The values you see were collected from patent US20240327460A1.

molecular target: NorA (Staphylococcus aureus, UniProt Q5HHX4); construct: made in house; host or cells: C43 (DE3) E. coli; experiment: Fluorescence polarization (FP) binding of FITC-NPI-1 to NorA; design: species or system S. aureus
Sequence (Q5HHX4 whole entry): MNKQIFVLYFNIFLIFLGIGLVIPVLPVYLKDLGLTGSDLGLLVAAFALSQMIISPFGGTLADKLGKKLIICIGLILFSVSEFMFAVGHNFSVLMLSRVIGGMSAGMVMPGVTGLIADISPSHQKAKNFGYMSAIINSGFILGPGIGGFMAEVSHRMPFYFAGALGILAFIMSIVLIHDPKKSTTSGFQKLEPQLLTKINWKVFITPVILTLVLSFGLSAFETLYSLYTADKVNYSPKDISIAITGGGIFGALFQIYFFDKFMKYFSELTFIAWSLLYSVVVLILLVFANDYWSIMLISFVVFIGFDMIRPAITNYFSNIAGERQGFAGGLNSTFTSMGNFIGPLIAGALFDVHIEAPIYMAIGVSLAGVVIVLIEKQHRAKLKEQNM
quantity_name: pKd
Numbers only, as −log10 of the molar value.

# pKd lookup, item H-YYYYAWRVGGYWR-NH2 [NPI-1, NH2-YYYYAWRVGGYWR-CONH2]
8.00
